- TARGET_OF_ASSAY: EGFR (Homo sapiens, UniProt P00533)
- Sequence (P00533 25-1210): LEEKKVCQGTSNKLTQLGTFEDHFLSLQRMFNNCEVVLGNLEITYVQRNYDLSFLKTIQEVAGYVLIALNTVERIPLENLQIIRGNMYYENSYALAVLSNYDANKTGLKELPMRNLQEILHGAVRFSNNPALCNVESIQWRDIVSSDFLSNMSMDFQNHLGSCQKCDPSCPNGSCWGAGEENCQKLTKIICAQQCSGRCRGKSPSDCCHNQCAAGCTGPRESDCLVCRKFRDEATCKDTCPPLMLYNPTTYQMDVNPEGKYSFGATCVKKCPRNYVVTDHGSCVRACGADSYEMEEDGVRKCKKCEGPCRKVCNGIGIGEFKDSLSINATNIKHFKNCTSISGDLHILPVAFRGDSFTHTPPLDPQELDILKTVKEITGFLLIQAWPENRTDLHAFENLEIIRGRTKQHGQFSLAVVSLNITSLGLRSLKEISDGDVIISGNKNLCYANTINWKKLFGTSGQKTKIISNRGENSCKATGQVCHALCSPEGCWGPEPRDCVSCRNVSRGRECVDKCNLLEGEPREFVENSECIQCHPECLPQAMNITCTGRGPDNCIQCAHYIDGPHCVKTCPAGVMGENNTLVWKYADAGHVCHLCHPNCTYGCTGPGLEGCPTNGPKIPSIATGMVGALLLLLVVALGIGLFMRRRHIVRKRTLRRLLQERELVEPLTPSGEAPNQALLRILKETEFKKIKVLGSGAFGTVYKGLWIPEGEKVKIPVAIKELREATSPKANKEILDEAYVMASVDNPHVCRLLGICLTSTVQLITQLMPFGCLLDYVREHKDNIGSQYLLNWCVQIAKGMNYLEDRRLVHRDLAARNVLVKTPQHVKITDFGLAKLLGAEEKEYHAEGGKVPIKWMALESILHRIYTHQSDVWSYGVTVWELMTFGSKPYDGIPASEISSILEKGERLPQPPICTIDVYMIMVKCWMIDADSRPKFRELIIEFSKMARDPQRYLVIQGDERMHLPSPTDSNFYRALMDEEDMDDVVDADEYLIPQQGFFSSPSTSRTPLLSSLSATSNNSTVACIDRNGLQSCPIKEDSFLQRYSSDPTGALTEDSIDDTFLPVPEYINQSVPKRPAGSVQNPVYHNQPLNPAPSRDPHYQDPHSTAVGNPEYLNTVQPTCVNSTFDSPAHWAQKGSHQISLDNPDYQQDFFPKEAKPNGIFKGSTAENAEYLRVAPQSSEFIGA
- RUN_DESCRIPTION: Inhibition of a panel of kinases, in vitro HotSpot kinase assay: EGFR
- Assay type: biochemical
- EXPERIMENTAL_SETUP: D-compounds panel data; 1 μM ATP
Reported IC50 by item:

>>> val("C[C@@H]1[C@H](NC(=O)c2ccc(C3CC3)cc2)CCCN1c1cnc(C(N)=O)c(Nc2cnn(C3CCNCC3)c2)n1 [Example D-280]")
"1 to 10 µM"

In: Given the entry C[C@@H]1[C@H](NC(=O)c2ccc(C3CC3)cc2)CCCN1c1cnc(C(N)=O)c(Nc2cn(C)nc2C(F)(F)F)n1 [Example D-278] , what IC50 was observed with EGFR (Homo sapiens, UniProt P00533)?
Out: > 10 µM

In: Form field - read-out: IC50; system: EGFR (Homo sapiens, UniProt P00533); submitted item: C[C@@H]1[C@H](NC(=O)c2ccc(C(C)(C)C)cc2)CCCN1c1cnc(C(N)=O)c(Nc2ccc(N3CCN(C)CC3)cc2)n1 [Example D-14]
Out: 1 to 10 µM

In: Test system EGFR (Homo sapiens, UniProt P00533); read-out IC50; what value for Cn1cc(Nc2nc(N3CCC[C@@H]4[C@H]3CCN4C(=O)c3ccccc3)cnc2C(N)=O)cn1 (racemic) [Example D-54] ?
Out: > 10 µM

In: Value wanted: IC50 (EGFR (Homo sapiens, UniProt P00533)) of entry C[C@@H]1[C@H](NC(=O)c2ccc(C3CC3)cc2)CCCN1c1cnc(C(N)=O)c(Nc2ccc(OC3CCCN(C)C3)cc2)n1 (stereo partly drawn) [Example D-105]
Out: 0.1 to 1 µM

In: EGFR (Homo sapiens, UniProt P00533) / IC50 / C[C@@H]1[C@H](NC(=O)c2ccc(N(C)CCO)cc2)CCCN1c1cnc(C(N)=O)c(Nc2cnn(C)c2)n1 [Example D-217] : value?
Out: 1 to 10 µM

In: API: value(readout=IC50, system=EGFR (Homo sapiens, UniProt P00533)) for record C[C@@H]1[C@H](NC(=O)c2ccc(C3CC3)cc2F)CCCN1c1cnc(C(N)=O)c(Nc2ccc(S(=O)(=O)N3CCCC3)cc2)n1 [Example D-139]
Out: 1 to 10 µM

In: What IC50 appears in the records for this compound with EGFR (Homo sapiens, UniProt P00533)? Cc1cc(Nc2nc(N3C[C@@H](NC(=O)c4ccc(C5CC5)cc4F)CC[C@H]3C)cnc2C(N)=O)sn1 [Example D-80]
Out: 0.1 to 1 µM

In: IC50 of C[C@@H]1[C@H](NC(=O)N(C)C)CCCN1c1cnc(C(N)=O)c(Nc2ccc(C(=O)N3CCN(C)CC3)cc2)n1 [Example D-110] on EGFR (Homo sapiens, UniProt P00533)?
Out: 1 to 10 µM

* * *

Documented IC50 across a set of compounds
- TARGET_OF_ASSAY: BTK-WT (Homo sapiens)
- Construct: purified from insect cells as a full-length construct containing an N-terminal 6X-His tag; His6 (N); made in house; host or cells: insect cells (baculovirus Sf21 in Method B)
- Sequence (Q06187 whole entry): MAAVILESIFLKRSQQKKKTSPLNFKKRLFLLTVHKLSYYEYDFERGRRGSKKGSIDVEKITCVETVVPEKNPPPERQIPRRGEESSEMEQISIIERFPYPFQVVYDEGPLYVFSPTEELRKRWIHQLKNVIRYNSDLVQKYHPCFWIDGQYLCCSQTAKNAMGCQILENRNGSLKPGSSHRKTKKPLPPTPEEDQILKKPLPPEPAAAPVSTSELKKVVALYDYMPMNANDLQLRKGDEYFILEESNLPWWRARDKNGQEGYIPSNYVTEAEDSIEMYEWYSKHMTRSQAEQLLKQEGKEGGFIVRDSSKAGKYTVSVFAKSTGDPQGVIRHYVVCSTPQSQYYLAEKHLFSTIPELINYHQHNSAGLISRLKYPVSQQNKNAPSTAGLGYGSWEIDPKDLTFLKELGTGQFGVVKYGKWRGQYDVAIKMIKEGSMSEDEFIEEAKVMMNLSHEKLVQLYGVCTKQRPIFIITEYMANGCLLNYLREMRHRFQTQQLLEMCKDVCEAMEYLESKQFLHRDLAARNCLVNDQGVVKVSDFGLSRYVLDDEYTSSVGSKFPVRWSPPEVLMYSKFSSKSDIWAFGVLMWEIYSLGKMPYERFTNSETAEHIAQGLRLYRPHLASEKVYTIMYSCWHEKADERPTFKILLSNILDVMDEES
- RUN_DESCRIPTION: Btk in vitro inhibitory activity (one of Method A TR-FRET, Method B electrophoretic mobility shift, Method C radiometric filter binding)
- Type: biochemical
- EXPERIMENTAL_SETUP: Table 12, Formula C-I; read-out: BTK-WT (IC50)
Where a name gives a salt, the structure may show the parent alone.

Examples with their reported IC50 follow.
>>> val("Cc1cc(Nc2nc(N[C@@H]3CCCN(C(=O)c4ccccc4)C3)cnc2C(N)=O)sn1")
"≤ 100 nM"
>>> val("Cc1cc(Nc2nc(N[C@H]3CCCN(C(=O)N(C)C)C3)cnc2C(N)=O)sn1")
"≤ 100 nM"
>>> val("C=CC(=O)N1CCC[C@H](N(C)c2cnc(C(N)=O)c(Nc3cc(-c4ccccc4)ns3)n2)C1")
"≤ 100 nM"
>>> val("C=CC(=O)N1CC[C@H](Nc2nnc(C(N)=O)c(Nc3cccc(C(=O)Nc4ccc(C(C)C)c(C)c4)c3)n2)C1")
"≤ 100 nM"
>>> val("Cc1cc(Nc2nc(N(C)[C@H]3CCCN(C(=O)N(C)C)C3)cnc2C(N)=O)sn1")
"100 to 1000 nM"
>>> val("Cc1cc(Nc2nc(N[C@@H]3CCCN(C(=O)N(C)C)C3)cnc2C(N)=O)sn1 [Example C-5, hydrochloride]")
"100 to 1000 nM"

Now for the compound whose IC50 we want.
In: Report IC50 for Cc1cc(Nc2nc(N(C)CC3CCN(C(=O)c4ccccc4)CC3)cnc2C(N)=O)sn1 please.
Out: 100 to 1000 nM

* * *

Reported IC50 values for the following compounds.
- TARGET_OF_ASSAY: LCK (Homo sapiens, UniProt P06239)
- Sequence (P06239 whole entry): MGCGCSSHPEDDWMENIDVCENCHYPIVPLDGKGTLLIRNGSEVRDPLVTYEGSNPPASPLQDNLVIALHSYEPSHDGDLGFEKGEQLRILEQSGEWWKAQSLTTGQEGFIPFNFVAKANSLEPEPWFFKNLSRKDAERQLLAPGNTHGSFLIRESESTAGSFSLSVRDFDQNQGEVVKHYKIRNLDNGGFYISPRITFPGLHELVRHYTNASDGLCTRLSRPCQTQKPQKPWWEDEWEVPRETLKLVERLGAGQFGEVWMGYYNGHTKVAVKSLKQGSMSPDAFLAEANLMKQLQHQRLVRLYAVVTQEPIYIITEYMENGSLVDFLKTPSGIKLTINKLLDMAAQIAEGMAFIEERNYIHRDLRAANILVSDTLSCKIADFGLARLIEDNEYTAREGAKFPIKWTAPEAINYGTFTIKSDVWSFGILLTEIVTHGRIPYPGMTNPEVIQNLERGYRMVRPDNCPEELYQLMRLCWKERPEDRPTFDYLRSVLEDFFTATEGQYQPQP
- RUN_DESCRIPTION: Inhibition of a panel of kinases, in vitro HotSpot kinase assay: LCK
- Type: biochemical
- EXPERIMENTAL_SETUP: E compounds, Table 17; read-out: IC50 LCK

For orientation, consider the following solved cases.
>>> val("C[C@@H]1[C@H](NC(=O)c2cc(C(C)(C)C)nn2C)CCCN1c1cnc(C(N)=O)c(Nc2cnn(C)c2)n1")
"10 to 100 nM"
>>> val("C=CC(=O)N1CCC[C@@H](Nc2nnc(C(N)=O)c(Nc3ccc(-c4ncccn4)cc3)n2)C1")
"100 to 1000 nM"
>>> val("Cn1cc(Nc2nc(N3CCC4CCN(C(=O)c5ccc(C6CC6)cc5)C4C3)cnc2C(N)=O)cn1 (stereo not shown)")
"100 to 1000 nM"
>>> val("C=CC(=O)N1CCC[C@@H](N(C)c2cnc(C(N)=O)c(Nc3ccc(C(C)C)cc3)n2)C1")
"1000 to 10000 nM"

In: Could you share which IC50 value was measured for C=CC(=O)N1CCC[C@@H](Nc2nnc(C(N)=O)c(Nc3ccc(Cl)cc3)n2)[C@H]1C ?
Out: < 10 nM

In: Query: IC50; subject: C[C@@H]1[C@H](NC(=O)c2ccc(C3CC3)cc2)CCCN1c1cnc(C(N)=O)c(Nc2ccc(OC3CCN(C)C3)cc2)n1 (stereo partly shown)
Out: 10 to 100 nM

In: Any idea what IC50 was measured for CC(C)c1ccc(Nc2nc(N3CCC[C@@H](N4CCC[C@@H](Nc5cc(Cl)cc(C(F)(F)F)c5)C4=O)C3)nnc2C(N)=O)cc1 ?
Out: 10 to 100 nM

* * *

- TARGET_OF_ASSAY: SRC (Homo sapiens)
- Sequence (P12931 whole entry): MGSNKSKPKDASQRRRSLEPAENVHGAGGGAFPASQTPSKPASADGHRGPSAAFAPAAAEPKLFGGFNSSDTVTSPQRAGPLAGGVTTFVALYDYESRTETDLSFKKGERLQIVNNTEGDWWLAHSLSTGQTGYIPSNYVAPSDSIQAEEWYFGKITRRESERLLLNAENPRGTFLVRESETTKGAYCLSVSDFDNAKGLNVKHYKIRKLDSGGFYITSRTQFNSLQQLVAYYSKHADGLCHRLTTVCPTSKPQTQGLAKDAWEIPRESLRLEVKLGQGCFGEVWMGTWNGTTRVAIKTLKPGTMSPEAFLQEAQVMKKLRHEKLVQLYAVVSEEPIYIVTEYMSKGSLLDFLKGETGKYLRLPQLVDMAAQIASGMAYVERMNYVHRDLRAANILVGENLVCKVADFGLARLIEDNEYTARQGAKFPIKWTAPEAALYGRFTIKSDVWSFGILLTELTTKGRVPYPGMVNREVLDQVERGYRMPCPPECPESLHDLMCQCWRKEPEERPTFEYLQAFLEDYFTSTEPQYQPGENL
- RUN_DESCRIPTION: Inhibition of a panel of kinases, in vitro HotSpot kinase assay: SRC
- Type: biochemical
- EXPERIMENTAL_SETUP: fold relative to Btk IC50 value
REPORTED_PROPERTY: SRC* IC50 relative to Btk IC50 value (x)
# value in x; strip the unit string

Please review the entries below; each comes with its answer.
>>> val("Cn1cc(Nc2nc(N3CCC[C@@H](NC(=O)c4ccc(C5CC5)cc4)C3)nnc2C(N)=O)cn1")
159
>>> val("C[C@@H]1[C@H](NC(=O)c2ccc(C(C)(C)O)cc2)CCCN1c1cnc(C(N)=O)c(Nc2cnn(C)c2)n1")
40

In: Dear colleague, I am looking for the recorded SRC* IC50 relative to Btk IC50 value of the following molecule: C[C@@H]1[C@H](NC(=O)c2ccc(C3CC3)cc2)CCCN1c1cnc(C(N)=O)c(Nc2cnn(C3CC3)c2)n1
Out: 40

* * *

# IC50 listing for each entry below
- TARGET_OF_ASSAY: UniProt:P12931
- RUN_DESCRIPTION: Inhibition of a panel of kinases, in vitro HotSpot kinase assay: SRC
- Type: biochemical
- EXPERIMENTAL_SETUP: D-compounds panel data; 1 μM ATP

Study these solved cases before continuing.
>>> val("C[C@@H]1[C@H](NC(=O)c2ccc(C3CC3)cc2F)CCCN1c1cnc(C(N)=O)c(Nc2ccc(N3CCN(C)CC3)cn2)n1")
"> 10 µM"
>>> val("C[C@@H]1[C@H](NC(=O)c2ccc(C3CC3)cc2F)CCCN1c1cnc(C(N)=O)c(Nc2ccc(N3CCN(C)CC3)cc2)c1")
"0.1 to 1 µM"
>>> val("C[C@H]1CC[C@@H](NC(=O)c2ccc(C(C)(C)O)cc2)CN1c1nnc(C(N)=O)c(Nc2cnn(C)c2)n1")
"0.01 to 0.1 µM"
>>> val("C[C@@H]1[C@H](NC(=O)c2ccc(C(C)(C)O)cc2)CCCN1c1nnc(C(N)=O)c(Nc2cnn(C)c2)n1")
"0.01 to 0.1 µM"
>>> val("Cn1cc(Nc2nc(N3CC[C@@H](O)[C@H](NC(=O)c4ccc(C5CC5)cc4)C3)cnc2C(N)=O)cn1 (racemic)")
"1 to 10 µM"

In: May I ask what IC50 has been recorded for Cc1cc(Nc2nc(N3CCC[C@@H](NC(=O)N(C)C)[C@H]3CO)cnc2C(N)=O)sn1 ?
Out: 0.1 to 1 µM

In: Which measured IC50 value corresponds to C[C@@H]1[C@H](NC(=O)N(C)C)CCCN1c1cnc(C(N)=O)c(Nc2ccc(C(=O)N3CCN(C)CC3)cc2)n1 ?
Out: 0.1 to 1 µM

In: Look up IC50: CN(C)C(=O)N[C@@H]1CCCN(c2cnc(C(N)=O)c(Nc3ccc(C4(C)CCN(C5CCCC5)CC4)cc3)n2)[C@@H]1CO
Out: 0.1 to 1 µM

In: Query: IC50; subject: C[C@@H]1[C@H](NC(=O)c2ccc(C3CC3)cc2F)CCCN1c1cnc(C(N)=O)c(Nc2ccc(C3(C)CCN(C4CCCC4)CC3)cc2)n1
Out: ≤ 0.01 µM
